Tested on: SK-MEL-28
Experiment: NCI tumour cell line growth inhibition, 48 h
Calls of active or inactive are those of the source. Rule as the data show it: active = GI50 up to about 1.1 µM and inactive = higher.
Please reply with one of these outcomes: active, inactive

compound	targetEntity	categoryLabel
COc1cc2cc[n+](C)c(Cc3ccc(Oc4cc(Cc5c6cc(OC)c(OC)cc6cc[n+]5C)ccc4OC)cc3)c2cc1OC	SK-MEL-28	inactive

Query: Please indicate how the test categorized "Cn1c(=O)c2c3ccccc3c(C(=O)c3ccccc3)n2c2ccccc21" .
Response: inactive

Query: Please indicate how the test categorized COc1c(OC2OC(CO)C(O)C(O)C2O)cc2c(c1OC)-c1ccc(OC)c(=O)cc1C(NC(C)=O)CC2 (configuration not stated) .
Response: inactive

Query: Please indicate how the test categorized "CCCCn1c2c(n(CCCC)c1=S)-c1c(n(CCCC)c(=S)n1CCCC)SSc1c(n(CCCC)c(=S)n1CCCC)-c1c(n(CCCC)c(=S)n1CCCC)SSc1c(n(CCCC)c(=S)n1CCCC)-c1c(n(CCCC)c(=S)n1CCCC)SS2" .
Response: inactive

Query: Please indicate how the test categorized "O=C(OCc1ccccc1CN1CCOCC1)c1cccc(Br)c1" .
Response: inactive

Query: Please indicate how the test categorized C=CC(C1=CC(=O)C(OC)=CC1=O)c1ccccc1 (configuration not stated) .
Response: inactive

Query: Please indicate how the test categorized CC(=O)Nc1ccc2c3c(cc(O)c2c1)N(C(=O)CCCCCCC(=O)N1CC(CCl)c2c1cc(O)c1cc(NC(C)=O)ccc21)CC3CCl (configuration not stated) .
Response: active

Query: Please indicate how the test categorized "Cc1cc(O)c(C(C)C)cc1NC(=O)Nc1cccc2ccccc12" .
Response: inactive

Query: Please indicate how the test categorized "CCCC1c2c(ccc3ccccc23)Oc2ccc3ccccc3c21" .
Response: inactive

---

Test system: EKVX
Assay: NCI tumour cell line growth inhibition, 48 h
Activity calls are given as the source filed them. Rule as the data show it: active = GI50 up to about 1.1 µM and inactive = higher. Residues, ends and D or L forms follow the SMILES beside them. *: point of attachment. Bn = c1ccc(C*)cc1
measuredProperty: GI50

Consider the worked cases shown below.
molecule	targetEntity	GI50
CC1(C)C2CC(=O)C1(C)C(OCc1ccccc1)C2 (centres undefined)	EKVX	> 100 µM (inactive)
CSC(=N)N1N=C2c3ccccc3CC[C@@H]2[C@@H]1c1ccccc1	EKVX	17.5 µM (inactive)
COC(=O)C(CC(C)C)NC(=O)C(N)Cc1ccc(OCc2ccccc2)cc1 (centres undefined) (H-Tyr(Bn)-Leu-OMe; configuration not given here)	EKVX	> 10 µM (inactive)

Query: Record request: GI50 value, item "COCCOCOc1ccc(OCc2ccccc2)cc1"
Response: > 55.7 µM (inactive)

---

System: NCI-H23
Assay: NCI tumour cell line growth inhibition, 48 h
The source made the active and inactive calls. Cut-off read from the data, not from the text of the source: active = GI50 up to about 1.1 µM and inactive = higher.
measuredProperty: GI50

compound	reading
NCCOc1cccc(C2(N3CCCCC3)CCCCC2)c1	> 100 µM (inactive)
Cc1ccc(NC(=O)c2ccc(OP(=O)(O)Nc3ccc(C)cc3)cc2)cc1	> 100 µM (inactive)
O=C1C=CC2(O[C@H](c3ccccc3)[C@@H](c3ccccc3)O2)C(SC(=O)c2ccccc2)C1 (stereo partly drawn)	1.63 µM (inactive)
CO[C@H]1O[C@@H]2OC3(C)CCC4[C@H](C)CCC([C@H]1C)[C@]42OO3 (stereo partly drawn)	> 100 µM (inactive)

Give measured GI50 for every item shown.
1. COc1cc(OC)cc(C(=O)NC2=C(Cl)C(=O)c3ccccc3C2=O)c1
2. Cn1c(=O)ccc2cc(C(=O)c3ccccc3)ccc21
3. Brc1cc2nn(-c3ccccc3)nc2c2nonc12
4. COc1cc2c3c4[n+](cc2c(OC)c1OC)CCC4CCC3 (stereo not drawn)
5. CN1C(=O)C(CC=O)(C(C)(C)C)c2ccccc21 (stereo not drawn)

Response:
1. 2.43 µM (inactive)
2. 55 µM (inactive)
3. > 100 µM (inactive)
4. 98.9 µM (inactive)
5. > 100 µM (inactive)

---

System: OVCAR-5
Experiment: NCI tumour cell line growth inhibition, 48 h
Active and inactive are the calls of the source. Cut-off read from the data, not from the text of the source: active = GI50 up to about 1.1 µM and inactive = higher.
Assign GI50 to each entry below.

molecule	targetEntity	measuredProperty	reading
Cc1cc2c(cc1C)C(=O)C1(C2)Cc2c(ccc(C)c2C)C1=O (stereo not drawn)	OVCAR-5	GI50	> 100 µM (inactive)

Give measured GI50 for every item shown.
1. COc1c(OC)c(N)c2cc(C)c(=O)c(C)cc2c1N
2. CCCCCCCCCCSS(=O)(=O)c1ccc(C)cc1

Response:
> 100 µM (inactive)
15.9 µM (inactive)

Give measured GI50 for every item shown.
1. CCOC(=O)C1CCC/C1=N\NC(=N)N.Cc1cc(O)c(C(C)C)cc1S(=O)(=O)O (stereo not drawn)
2. Cc1cccc(C)c1NC(=O)CCCC(=O)C(C#N)c1ccc(Cl)cc1 (stereo not drawn)
3. CC(C)(/N=N/C(C)(C)C(=N)N)C(=N)N
4. COC(=O)C1=CCC[C@H]2[C@@]1(COC(C)=O)CC[C@@H](C)[C@]2(C)CC(=O)c1ccoc1
5. CC(=O)Nc1ccc2c3c(cc(O)c2c1)N(C(=O)CCCCCCC(=O)N1CC(CCl)c2c1cc(O)c1cc(NC(C)=O)ccc21)CC3CCl (stereo not drawn)

Response:
["> 100 µM (inactive)", "> 100 µM (inactive)", "> 100 µM (inactive)", "49 µM (inactive)", "0.0325 µM (active)"]

Give measured GI50 for every item shown.
1. Clc1ccc(-c2nnc(-c3nn(-c4ccccc4)c4nc5ccccc5nc34)o2)cc1
2. O=C(Nc1cccc(Cl)c1)c1cc2cc(/N=N/c3ccc(Br)cc3)ccc2oc1=O
3. Cc1ccc(S(=O)(=O)Nn2c(S)c(C#N)c(-c3ccc(N(C)C)cc3)c(C#N)c2=O)cc1
4. Cc1ccc(S(=O)(=O)OC(C=O)C(O)C(O)COC(c2ccccc2)(c2ccccc2)c2ccccc2)cc1 (stereo not drawn)

Response:
> 100 µM (inactive)
31 µM (inactive)
35 µM (inactive)
20.1 µM (inactive)

Query: Observed GI50 on OVCAR-5 for COC(=O)C(/C(=N/NC(N)=O)C(=O)Nc1c(C)cccc1C(C)(C)C)c1nc2ccc(Cl)cc2nc1O (stereo not drawn) , please.
Response: > 100 µM (inactive)

---

System: ACHN
Assay: NCI tumour cell line growth inhibition, 48 h
Activity calls are given as the source filed them. No stated cut-off is given here; in the data, active = GI50 up to about 1.1 µM and inactive = higher.
Please reply with one of these outcomes: True (active), False (inactive)

compound	categoryLabel
N#CCCOCN(CO)c1nc(N(CO)COCCC#N)nc(N(CO)COCCC#N)n1	False

Query: Please indicate how the test categorized "Cc1cc(S(=O)(=O)N=C2NCC(C)(C)CN2)c(S)cc1Cl" .
Response: False

Query: Please indicate how the test categorized CCOC(=O)C1CCC/C1=N\NC(=N)N.Cc1cc(O)c(C(C)C)cc1S(=O)(=O)O (centres undefined) .
Response: False

Query: Please indicate how the test categorized CCOC(=O)C1CCC(=O)N1C(=O)c1ccc(Cl)cc1 (centres undefined) .
Response: False

Query: Please indicate how the test categorized O=C(Nc1nnc(-c2ccccc2)o1)C(SC(=S)N1CCCC1)c1ccccc1 (centres undefined) .
Response: False

Query: Please indicate how the test categorized O=C(O)C1CC(c2ccc(F)cc2)=Nc2ccc(F)cc2S1 (centres undefined) .
Response: False

Query: Please indicate how the test categorized "Oc1cccc2c1NC1=C(CCC/C1=C\c1ccccc1)C2" .
Response: False

---

System: TK-10
Test: NCI tumour cell line growth inhibition, 48 h
The source made the active and inactive calls. Rule as the data show it: active = GI50 up to about 1.1 µM and inactive = higher.
measuredProperty: GI50

compound	measuredProperty	reading
Nc1ccccc1N/C(=C\C(=O)C(Cl)(Cl)Cl)c1ccccc1	GI50	65 µM (inactive)
c1ccc(CCN2CCOCC2)nc1	GI50	> 100 µM (inactive)
COc1ccc(-c2oc(/C=N/c3ccccc3)c([N+](=O)[O-])c2-c2ccc(OC)c(OC)c2)cc1OC	GI50	> 100 µM (inactive)
O=[N+]([O-])c1ccc2c(c1)Nc1c3ccccc3nc3cccc-2c13	GI50	5.38 µM (inactive)
Cc1cccc(C2=C/C(=C(\SS/C(C(=O)c3ccc(OCC(=O)O)c(Cl)c3Cl)=C3\C=C(c4cccc(C)c4)SS3)C(=O)c3ccc(OCC(=O)O)c(Cl)c3Cl)SS2)c1	GI50	27.9 µM (inactive)
CCCCCCOc1ccc(NC2=C(Cl)C(=O)c3cccnc3C2=O)cc1	GI50	3.3 µM (inactive)
Cc1cc2cc3ccccc3cc2c(=O)[nH]1	GI50	> 10 µM (inactive)
Cc1cccc(C)c1NC(=O)CCCC(=O)C(C#N)c1ccc(Cl)cc1 (stereo not drawn)	GI50	> 100 µM (inactive)
CCOC(=O)C1=C(Nc2cccc(OC)c2)OCC1=O	GI50	> 100 µM (inactive)
COc1nc(OC)nc(Sc2ccc(Sc3ccc(Sc4nc(OC)nc(OC)n4)cc3)cc2)n1	GI50	> 100 µM (inactive)

Give measured GI50 for every item shown.
1. O=C(NO)c1coc2ccccc2c1=O
2. N#CC(C#N)=C1NC(=O)CC(=O)N1

Response:
35.7 µM (inactive)
> 100 µM (inactive)

Query: Record request: GI50 value, item "C[C@]12CC[C@H]3[C@@H](CC=C4C[C@@H](O)CC[C@@]43C)[C@@H]1C/C(=C/c1ccccc1)[C@@H]2O"
Response: 27.8 µM (inactive)
